TGT: T1, human IL4Rα/Fc (R and D Systems 604-4R) (human, UniProt P24394 26-231, limits assumed, biotin labelled in the assay of Example 5)
T1 construct: bought protein; also called IL-4Rα/Fc (R&D systems Cat. No. 604-4R-050); not shown: Fc part of the bought fusion
T1 sequence (looked up): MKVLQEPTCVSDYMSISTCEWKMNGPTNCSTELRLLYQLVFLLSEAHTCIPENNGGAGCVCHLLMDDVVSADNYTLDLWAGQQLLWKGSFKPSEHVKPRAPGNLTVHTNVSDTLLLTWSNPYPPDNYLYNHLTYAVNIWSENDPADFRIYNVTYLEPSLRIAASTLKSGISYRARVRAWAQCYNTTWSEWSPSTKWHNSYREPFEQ
ASSAY METHOD TEXT: HTRF receptor-ligand assay, purified scFv against biotinylated human IL4
Recorded Ki by entry
State just the number; it will be interpreted in nM.

Antibody 40 scFv (scFv, V domains shown, tested as purified scFv) VH: QVQLVQSGAEVKKPGASVKVSCKASGYAFTSYYMHWARQAPGQGLEWMGIINPSGGSTSYAQKFQGRVTMTRDTSTSTVYMELSSLRSEDTAVYYCARGKYWMYDWGKGTLVTVSS VL: QSVLTQPPSVSAAPGQKVTISCSGGSSNIGNSYVSWYQQLPGTAPKLLIYDNNKRPSGIPDRFSGSKSGTSATLAITGLQTGDEADYYCGTWDSSTVWEWPFGTGTKLTVL : 0.031

Ki for Antibody 33 scFv (scFv, V domains shown, tested as purified scFv) VH: QVQLVQSGAEEKKPGASVKVSCKASGYAFTSYYMHWARQAPGQGLEWMGIINPSGGSTSYAQKFQGRVTMTRDTSTSTVYMELSSLRSEDTAVYYCARGKYWMYDWGKGTLVTVSS VL: QSALTQPPSVSAAPGQKVTISCSGGSSNIGNSYVSWYQQLPGTAPKLLIYDNNKRPSGIPDRFSGSKSGTSATLAITGLQTGDEADYFCGTWDTSTVWEWPFGTGTKLTVL ?
0.092

Next binder up: Antibody 21 scFv (scFv, V domains shown, tested as purified scFv) VH: QVQLVQSGAEVKKPGASVKVSCKASGYAFTSYYMHWARQAPGQGLEWMGIINPSGGSASYAQKFQGRVTMTRDTSTSTVYMELSSLRSEDTAVYYCARGKYWMYDWGKGTLVTVSS VL: QSVLTQPPSVSAAPGQKVTISCSGGSSNIGNSYVSWYQQLPGTAPKLLIYDNNKRPSGIPDRFSGSKSGTSATLAITGLQTGDEAVYFCGTWDTSTVWEWPFGTGTKLTVL
0.031
